meta.source: paper PMC6271239

Quick note: these are MIC numbers for system: Candida glabrata (ATCC 2001)
measurement_label: MIC (µg/mL)

Known results for molecules:
INSERT INTO assay_data (molecule, measured_result) VALUES
  ('O=[N+]([O-])c1cc(Cl)ccc1-c1ccc(C=NNc2nc(-c3ccc(Br)cc3)cs2)o1 [Compound 12]', 500),
  ('COc1ccc(-c2csc(NN=Cc3ccc(-c4ccc([N+](=O)[O-])cc4)o3)n2)cc1 [Compound 7]', 1000),
  ('O=[N+]([O-])c1cc(Cl)ccc1-c1ccc(C=NNc2nc(-c3ccc(F)cc3)cs2)o1 [Compound 10]', 1000),
  ('O=[N+]([O-])c1ccc(-c2ccc(C=NNc3nc(-c4ccc(Br)cc4)cs3)o2)cc1 [Compound 5]', 1000);

P: O=[N+]([O-])c1ccc(-c2ccc(C=NNc3nc(-c4ccc(F)cc4)cs3)o2)cc1 [Compound 3]
Q: OC(Cn1cncn1)(Cn1cncn1)c1ccc(F)cc1F [Fluconazole, reference compound]
R: Cc1ccc(-c2csc(NN=Cc3ccc(-c4ccc(Cl)cc4[N+](=O)[O-])o3)n2)cc1 [Compound 13]
Incoming: Arrange these 3 molecules in increasing order of MIC. // list labels; follow requested order
Outgoing: Q, R, P
